These entries and their values trace back to PubChem BioAssay.

EXPERIMENTAL PROTOCOL: RPMI8226 myeloma cell viability, profiling panel, resazurin fluorescence, basal, 24 h, PK04 Diversity Set (AID 1180);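 note: RPMI8826 multiple myeloma cell line at 5000 cells per well; test concentration not given here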
MEASUREMENT CONDITIONS: higher = more signal
Please respond with reported z-score for every item in the list.
// return just the number, without any unit appended

# lookup: z-score of COC(=O)CC=C[C@H](C)[C@@H](OCc1ccccc1Br)C(C)C
-1.89

Look up z-score: COc1cccc([C@H]2Oc3ccc(OC)cc3C(=NO[C@H](C)c3cn([C@@H]4COC[C@H]4O)nn3)[C@@H]2O)c1
-0.238

Please look up its z-score: Cc1ccc(S[C@]2(C(=O)NCC(F)(F)F)CC(=O)N(Cc3ccccc3Cl)[C@@H]2c2ccc(CO)cc2I)cc1
-2.02

What z-score value was documented for this molecule, COc1ccc(OC[C@H]2Cc3c(-c4ccccc4)nc4c(c3CO2)CN(CCOc2ccccc2)CC4)cc1 ?
0.578

Recorded z-score of CC(C)(C)OC(=O)CC[C@]1(C(=O)NCc2ccccc2)N=C(c2ccc(OCCCO)cc2)O[C@H]1c1ccccc1 , please.
-0.135

I have this molecule here, CO[C@@H]1COC(=O)CCC[C@@H](C)[C@H](OC)COC(=O)CCC[C@H]1C , and I need its recorded z-score.
0.276

Entry COC(=O)[C@@H]1CC[C@H](C)[C@@H](c2ccc(C)cc2)N1C(=O)c1ccc(C=NOC[C@@H](O)COCc2ccco2)cc1 has what z-score?
-1.49

# get_value(readout='z-score', item= COC(=O)[C@]1(CO)N=C(c2ccc(OCCCO)cc2)O[C@@H]1c1ccccc1N=[N+]=[N-] )
-0.459
